# credit: patent US20240239735A1

- METHOD NOTES: Pharmacokinetic study in SD rats, intragastric administration
- Assay type: in vivo
- EXPERIMENTAL CONDITIONS: male, SD, rat, plasma, po, 20 mg/kg, male SD rats, 20 mg/kg in 5% TPGS
OUTCOME MEASURE: half-life (h)
The figure you give is taken to be in h; do not add the unit.

Tell me the measured half-life of COc1cccc(CNC(=O)N2CCc3cc(-c4c[nH]nc4N)c(F)cc32)c1 [Fumarate crystal form I] , please. 3.44

----------
- METHOD NOTES: Pharmacokinetic study in SD rats, intragastric administration
- Type: in vivo
- EXPERIMENTAL CONDITIONS: female, SD, rat, plasma, po, 20 mg/kg, female SD rats, 20 mg/kg in 5% TPGS, read-out: Tmax
OUTCOME MEASURE: Tmax (min)
Dear colleague, please return just the value in min, with no unit written.

Return reported Tmax; argument: COc1cccc(CNC(=O)N2CCc3cc(-c4c[nH]nc4N)c(F)cc32)c1 [Free base crystal form II] 40.2
